Organism: Rattus norvegicus
protocol: Inhibition of rat recombinant geranylgeranyltransferase type I expressed in Escherichia coli assessed as residual enzyme activity for geranylgeranylation of K-Ras4B at 50 uM incubated for 30 mins in presence of [3H]GGPP by scintillation counting assay relative to control
Record met whenever Activity is at 80% or higher; record not met when lower.

**Q:** In plain terms: is recorded Activity at least 80% for CCc1ccc([C@@H]2C[C@@H](Sc3ccc(C)cc3)[C@H](C(=O)O)CN2S(=O)(=O)c2ccc(C)cc2)cc1 ?
**A:** met

**Q:** Decide: is the reported value of Activity for C=CCS[C@@H]1C[C@@H](c2ccccc2F)N(S(=O)(=O)c2ccc(C)cc2)C[C@H]1C(=O)O equal to or greater than 80%?
**A:** not met

**Q:** Given Cc1ccc(S(=O)(=O)N2[C@@H](c3ccc(F)cc3)C(C(=O)O)=CC[C@H]2c2ccccc2F)cc1 , state whether its Activity is at least 80%.
**A:** not met

**Q:** Kindly determine if Activity recorded for COC(=O)c1ccccc1S(=O)(=O)N1[C@@H](c2cccc(Br)c2)C(C(=O)O)=CC[C@H]1c1ccc(C)cc1 is above or exactly 80%.
**A:** not met

**Q:** Item C=CCS[C@H]1[C@@H](C(=O)O)[C@H](c2ccc(Cl)cc2)N(S(=O)(=O)c2ccccc2C)[C@@H]1CCCC with Activity of 80% or above?
**A:** not met

**Q:** Kindly determine if Activity recorded for Cc1ccc(S(=O)(=O)N2[C@@H](c3cccc(C)c3)C(C(=O)O)=CC[C@H]2c2ccc(Cl)cc2)cc1 is above or exactly 80%.
**A:** not met

**Q:** Entry CCCCCCS[C@@H]1C[C@@H](c2cc(OC)c(OC)c(OC)c2)N(S(=O)(=O)c2ccc(C)cc2)C[C@H]1C(=O)O : is its Activity no less than 80%?
**A:** met

**Q:** Would you say CCC[C@@H]1[C@@H](SCCC(=O)OC(C)(C)C)[C@@H](C(=O)O)[C@H](c2ccc(Cl)cc2)N1S(=O)(=O)c1ccc(Cl)cc1 shows Activity at minimum 80%?
**A:** not met

**Q:** Identify whether the reported Activity of the following compound is 80% or greater: C=CCS[C@@H]1C[C@@H](c2ccc(OC)cc2)N(S(=O)(=O)c2ccc(C)cc2)C[C@H]1C(=O)O
**A:** met

**Q:** Please indicate if the recorded Activity for COc1ccc([C@@H]2CC=C(C(=O)O)[C@H](c3ccc(Cl)cc3)N2S(=O)(=O)c2ccc(C)cc2)cc1 meets or exceeds 80%.
**A:** met

**Q:** Could you tell me if the measured Activity of Cc1ccc([C@@H]2C[C@@H](Sc3ccccc3)[C@H](C(=O)O)CN2S(C)(=O)=O)cc1 reaches 80% or more?
**A:** met

**Q:** Answer whether Activity of Cc1ccc([C@@H]2C[C@@H](Sc3ccc(Cl)cc3)[C@H](C(=O)O)CN2S(C)(=O)=O)cc1 is greater than or equal to 80%.
**A:** met

**Q:** Does the reported Activity for CCS[C@@H]1C[C@@H](c2ccc(C)cc2)N(S(=O)(=O)c2ccccc2C)C[C@H]1C(=O)O fall at or above the 80% mark?
**A:** met

**Q:** Entry COc1ccc([C@@H]2CC=C(C(=O)O)[C@H](c3ccc(Br)cc3)N2S(=O)(=O)c2ccc(Cl)cc2)cc1 : is its Activity no less than 80%?
**A:** not met

**Q:** Hi team, for COc1cccc([C@@H]2C[C@@H](Sc3ccc(Cl)cc3)[C@H](C(=O)O)CN2S(=O)(=O)c2ccc(C)cc2)c1 , is the recorded Activity at or above 80%?
**A:** not met

###

Organism: Rattus norvegicus
protocol: Inhibition of rat recombinant geranylgeranyltransferase type I expressed in Escherichia coli assessed as residual enzyme activity for geranylgeranylation of K-Ras4B at 50 uM incubated for 30 mins in presence of [3H]GGPP by scintillation counting assay relative to control
quantity name: Activity (%)
Record the value in %, omitting the unit from your answer.

**Q:** What measured Activity goes with CS(=O)(=O)N1[C@@H](c2ccc(F)cc2)C(C(=O)O)=CC[C@H]1c1ccccc1 ?
**A:** 67.2

**Q:** Please report the recorded Activity for CCS[C@@H]1C[C@@H](c2ccc(C)cc2)N(S(=O)(=O)c2ccc(Cl)cc2)C[C@H]1C(=O)O .
**A:** 58.3

**Q:** Which measured Activity value corresponds to CCOc1ccc([C@@H]2CC=C(C(=O)O)[C@H](c3ccc(Cl)cc3)N2S(=O)(=O)c2ccc(C)cc2)cc1 ?
**A:** 71.6

**Q:** Please give the measured Activity for this compound: C=CCS[C@@H]1C[C@@H](c2cccc(OC)c2)N(S(=O)(=O)c2ccc(C)cc2)C[C@H]1C(=O)O
**A:** 75.1

**Q:** Suppose we examine the compound Cc1ccc(S(=O)(=O)N2[C@@H](c3ccc(C(C)(C)C)cc3)C(C(=O)O)=CC[C@H]2c2ccc3c(c2)OCO3)cc1 ; what Activity value has been reported?
**A:** 87.2

**Q:** What value of Activity has been recorded for this entry: Cc1ccc(S(=O)(=O)N2[C@@H](c3cccc(F)c3)C(C(=O)O)=CC[C@H]2c2ccc(C(C)C)cc2)cc1
**A:** 72.8

**Q:** Value lookup for Activity; key = COc1ccc([C@@H]2C[C@@H](SC3CCCC3)[C@H](C(=O)O)CN2S(=O)(=O)c2ccc(Cl)cc2)cc1
**A:** 83.1

**Q:** Which Activity value is on record for Cc1ccc([C@H]2C(C(=O)O)=CC[C@@H](c3ccccc3)N2S(=O)(=O)c2ccc(C)cc2)cc1 ?
**A:** 87.5

**Q:** Need Activity of Cc1ccc(S(=O)(=O)N2[C@@H](c3cccc(F)c3)C(C(=O)O)=CC[C@H]2c2cccc(Cl)c2)cc1 , thanks.
**A:** 52.8

**Q:** Activity lookup needed for Cc1ccc(S(=O)(=O)N2[C@@H](c3ccc(Br)cc3)C(C(=O)O)=CC[C@H]2c2ccccc2F)cc1 , thanks.
**A:** 72.8

**Q:** Value lookup for Activity; key = CCc1ccc([C@@H]2C[C@@H](Sc3ccc(Cl)cc3)[C@H](C(=O)O)CN2S(=O)(=O)c2ccc(C)cc2)cc1
**A:** 72

**Q:** Give the measured Activity of Cc1ccc([C@@H]2CC=C(C(=O)O)[C@H](c3cccc(F)c3)N2S(=O)(=O)c2ccc(C)cc2)cc1 .
**A:** 77.3

**Q:** Find the recorded Activity belonging to Cc1ccc([C@@H]2CC=C(C(=O)O)[C@H](c3cccc(Cl)c3)N2S(=O)(=O)c2ccc(C)cc2)cc1 and report it.
**A:** 69.4

**Q:** For the compound shown here, Cc1ccc([C@@H]2CC=C(C(=O)O)[C@H](c3cccc(F)c3)N2S(=O)(=O)c2ccccc2)cc1 , give the reported Activity.
**A:** 64.9

###

Test system: MIA PaCa-2
protocol: Antiproliferative activity against human MIAPaCa2 cells assessed as inhibition of cell proliferation incubated for 72 hrs by CCK8 assay
Type: functional, cell-based
conditions: MIA PaCa-2, 72 h
For each of the compounds below, state its GI50.

**Q:** Suppose we examine the compound Cc1ccccc1S(=O)(=O)N1[C@@H](c2ccc(Cl)c(Cl)c2)C(C(=O)N[C@@H](Cc2ccccc2)C(N)=O)=C[C@H]1C(C)(C)C ; what GI50 value has been reported?
**A:** 7.49 to 8.06 µM

**Q:** Consider the compound Cc1ccccc1S(=O)(=O)N1[C@@H](c2ccc(Cl)cc2)C(C(=O)N[C@@H](Cc2ccccc2)C(N)=O)=C[C@H]1C(C)CC(C)(C)C (stereo partly drawn) and give its measured GI50.
**A:** 6.7 to 7.17 µM

**Q:** Entry CC(C)(C)[C@@H]1C=C(C(=O)N[C@@H](Cc2ccccc2)C(N)=O)[C@H](c2ccc(Br)cc2)N1S(=O)(=O)c1ccccc1Cl : reported GI50 = ?
**A:** 6.15 to 12.1 µM

###

Please respond with reported Activity for every item in the list.
Species: Rattus norvegicus
protocol: Inhibition of rat recombinant geranylgeranyltransferase type I expressed in Escherichia coli assessed as residual enzyme activity for geranylgeranylation of K-Ras4B at 50 uM incubated for 30 mins in presence of [3H]GGPP by scintillation counting assay relative to control

**Q:** I'd like to know its Activity. The molecule in question is Cc1ccc(S(=O)(=O)N2C[C@@H](C(=O)O)[C@H](SCCc3ccccc3)C[C@H]2c2cccc(Br)c2)cc1
**A:** 4.7 to 7.3%

**Q:** Which Activity reading was recorded for the molecule Cc1ccc(S(=O)(=O)N2C[C@@H](C(=O)O)[C@H](Sc3ccc(Cl)cc3)C[C@H]2c2cccc(Br)c2)cc1 ?
**A:** 20.4 to 22.8%

**Q:** Query: Activity; subject: Cc1ccc(S(=O)(=O)N2[C@@H](c3ccc(C(C)(C)C)cc3)C(C(=O)O)=CC[C@H]2c2ccc(F)cc2)cc1
**A:** 85.1%

**Q:** Request the reported Activity associated with COc1ccc([C@@H]2C[C@@H](SC3CCCC3)[C@H](C(=O)O)CN2S(=O)(=O)c2ccccc2C)cc1
**A:** 98.2%

**Q:** Fill blank: measured Activity of the molecule Cc1ccccc1S(=O)(=O)N1[C@@H](c2ccc(Cl)cc2)C(C(=O)O)=CC[C@H]1c1ccc(Cl)cc1 is ____.
**A:** 54.4%

**Q:** Requested read-out: Activity. Entry: CCCCCCS[C@@H]1C[C@@H](c2ccc(CC)cc2)N(S(=O)(=O)c2ccc(C)cc2)C[C@H]1C(=O)O
**A:** 70%

Source listed as ChEMBL document CHEMBL4421722.
